target: Sodium-dependent noradrenaline transporter (Homo sapiens); assay: DRUGMATRIX: Norepinephrine Transporter radioligand binding (ligand: [125I] RTI-55); format: cell membranes, MDCK, Membrane; conditions: mdck; Not Active = under 50% inhibition at 10 µM
Sequence (P23975 whole entry): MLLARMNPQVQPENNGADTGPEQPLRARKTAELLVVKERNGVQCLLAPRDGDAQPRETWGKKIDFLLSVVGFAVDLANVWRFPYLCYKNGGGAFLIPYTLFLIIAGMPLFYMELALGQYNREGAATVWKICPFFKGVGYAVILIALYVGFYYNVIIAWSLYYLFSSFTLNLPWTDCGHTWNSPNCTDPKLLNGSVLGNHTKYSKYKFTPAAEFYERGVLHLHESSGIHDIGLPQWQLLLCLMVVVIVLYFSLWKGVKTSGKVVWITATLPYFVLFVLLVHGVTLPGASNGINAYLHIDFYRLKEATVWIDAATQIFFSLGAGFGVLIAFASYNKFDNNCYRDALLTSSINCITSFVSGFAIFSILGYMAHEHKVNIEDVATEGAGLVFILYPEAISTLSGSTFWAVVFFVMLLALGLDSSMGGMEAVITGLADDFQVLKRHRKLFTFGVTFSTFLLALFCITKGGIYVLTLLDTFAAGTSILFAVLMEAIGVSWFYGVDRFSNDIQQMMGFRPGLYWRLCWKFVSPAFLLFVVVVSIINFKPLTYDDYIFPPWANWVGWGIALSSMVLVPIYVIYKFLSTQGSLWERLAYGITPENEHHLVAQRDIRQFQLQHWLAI
attribute_measured: IC50

Solved cases (5 shown):
CN1C[C@H](C(=O)N[C@]2(C)O[C@@]3(O)[C@@H]4CCCN4C(=O)[C@H](Cc4ccccc4)N3C2=O)C=C2c3cccc4[nH]cc(c34)C[C@H]21 | Not Active
NS(=O)(=O)c1cc2c(cc1Cl)NCNS2(=O)=O [HYDROCHLOROTHIAZIDE] | Not Active
COc1c(N2CCNC(C)C2)c(F)cc2c(=O)c(C(=O)O)cn(C3CC3)c12 (centres undefined) | Not Active
N=C(N)NCCCCNC(=N)N.O=S(=O)(O)O [ARCAINE SULFATE] | Not Active
CC(C)(C)NCC(O)c1ccc(O)c(CO)c1 (centres undefined) | Not Active

Task: Return reported IC50. Input compound: C/C=C1\[C@H]2C=C(C)C[C@]1(N)c1ccc(=O)[nH]c1C2
Result: Not Active

Task: Return reported IC50. Input compound: Cc1[nH]cnc1CN1CCc2c(c3ccccc3n2C)C1=O
Result: Not Active

Task: Return reported IC50. Input compound: C=C1C(=O)O[C@@H]2C3O[C@]3(C)CC/C=C(\C)CC[C@@H]12 (some centres undefined)
Result: Not Active

Task: Return reported IC50. Input compound: CN(C)[C@@H]1C(O)=C(C(N)=O)C(=O)[C@@]2(O)C(O)=C3C(=O)c4c(O)cccc4[C@@](C)(O)[C@H]3C[C@@H]12
Result: Not Active

Task: Return reported IC50. Input compound: CC(C)NC[C@H](O)COc1cccc2[nH]ccc12
Result: Not Active

Task: Return reported IC50. Input compound: Cc1ccccc1N1CCN(CCc2nnc3n2CCCC3)CC1
Result: Not Active

Task: Return reported IC50. Input compound: Nc1ccc(S(N)(=O)=O)cc1 [SULFANILAMIDE]
Result: Not Active

Task: Return reported IC50. Input compound: CC1(C)S[C@@H]2[C@H](NC(=O)[C@H](NC(=O)N3CCNC3=O)c3ccccc3)C(=O)N2[C@H]1C(=O)O
Result: Not Active

Task: Return reported IC50. Input compound: CC[C@H]1OC(=O)[C@H](C)[C@@H](O[C@H]2C[C@@](C)(OC)[C@@H](O)[C@H](C)O2)[C@H](C)[C@@H](O[C@@H]2O[C@H](C)C[C@H](N(C)C)[C@H]2O)[C@](C)(O)C[C@@H](C)/C(=N\OCOCCOC)[C@H](C)[C@@H](O)[C@]1(C)O
Result: Not Active

Task: Return reported IC50. Input compound: O=P1(NCCCl)OCCCN1CCCl (centres undefined) [IFOSFAMIDE]
Result: Not Active

Task: Return reported IC50. Input compound: N#C[C@H](O[C@@H]1O[C@H](CO[C@@H]2O[C@H](CO)[C@@H](O)[C@H](O)[C@H]2O)[C@@H](O)[C@H](O)[C@H]1O)c1ccccc1
Result: Not Active

Task: Return reported IC50. Input compound: Nc1ccc(S(=O)(=O)Nc2ccnn2-c2ccccc2)cc1
Result: Not Active

Task: Return reported IC50. Input compound: CC(C)(S)[C@@H](N)C(=O)O
Result: Not Active

Task: Return reported IC50. Input compound: COC(=O)C1=C(C)NC(C)=C(C(=O)OC)C1c1ccccc1[N+](=O)[O-]
Result: Not Active

Task: Return reported IC50. Input compound: Cn1cnc([N+](=O)[O-])c1Sc1ncnc2nc[nH]c12
Result: Not Active
